Read-out: Interleukin-1 alpha (IL1a), IL1A (gene 3552)
method summary: BSK_BE3C_IL1a: BioMAP Diversity Plus: BE3C Assay for Interleukin-1 alpha (IL1a) Biomarker Activity (AID 2283016)
experimental context: primary human bronchial epithelial cells; actives raise or lower the signal
Protocol: BSK_BE3C is a cell-based, multiplexed-readout assay that uses bronchial epithelial cell, a human lung primary cell, with measurements taken at 24 hours after chemical dosing in a 96-well plate.BSK_BE3C_IL1a is an assay component measured in the BSK_BE3C assay. It measures IL-1a antibody related to regulation of gene expression using ELISA technology.Data from the assay component BSK_BE3C_IL1a was analyzed into 1 assay endpoint. […]
Activity calls are given as the source filed them. The calls were made as follows: active = hit-call score of the fitted dose curve at least 0.9, where 1 is the maximum; inactive = score below 0.9.
Assign a class; possible classes are active, inactive

compound | cat
CCC(=O)Nc1ccc(Cl)c(Cl)c1 | inactive

Name the outcome recorded for CCCSP(=O)(OCC)SCCC in the assay.
inactive

Name the outcome recorded for CCC(=NOC/C=C/Cl)C1=C(O)CC(C2CCOCC2)CC1=O (configuration not stated) in the assay.
inactive

Name the outcome recorded for C[Si](Cn1cncn1)(c1ccc(F)cc1)c1ccc(F)cc1 in the assay.
inactive

Name the outcome recorded for CCOC(=O)CC(SP(=O)(OC)OC)C(=O)OCC (configuration not stated) in the assay.
inactive

Name the outcome recorded for CNc1cnn(-c2cccc(C(F)(F)F)c2)c(=O)c1Cl in the assay.
inactive
